system: NCI-H226 lung; test: NCI-60 one-dose screen, 48 h (100 = growth as untreated, 0 = no growth, -100 = all killed); settings: 10 µM unless noted
Compounds without any hit were thinned out: in the full panel of roughly 83,000, 20% have a hit.
Mark Y only for growth values smaller than 30%; exact matches and larger values are N.

Here are 4 compounds together with their reported answers.
Cc1cc(C(NC(=O)C2CC3(CC(Nc4cccc5c4C(=O)N(C4CCC(=O)NC4=O)C5=O)C3)C2)c2ccc3c(c2)OC(F)(F)O3)c(O)c2ncccc12 (stereo not given)    Y
COc1ccc(NC(=O)N/N=C/c2c[nH]c3ccccc23)cc1    N
C#CCCCNCCNc1ccnc2cc(Cl)ccc12    N
N#Cc1c(NC(=O)N2CCOCC2)n(-c2ccc(OC(F)(F)F)cc2)c2cc(F)ccc12    N

Problem: For the compound O=C(Nc1nc2ccc([N+](=O)[O-])cc2s1)Nc1ccccc1F , is growth under 30%?
Y

* * *

Item-by-item account of growth
test system: 786-0 renal; test: NCI-60 one-dose screen, 48 h (100 = growth as untreated, 0 = no growth, -100 = all killed); settings: 10 µM unless noted
The panel holds about 83,000 compounds, 20% with a hit somewhere; the sample as a whole holds those more often.
The reply should be a number in %, with the unit left off.

Previously resolved entries follow.
COc1cc(CNC(=O)C[C@H](C)CCC=C(C)C)ccc1OCc1cn(-c2ccccc2Cl)nn1    87.7
Cc1ccc(C(=O)C[n+]2cccc3c4ccccc4ccc32)cc1    34.4
COc1ccc2[nH]c(=O)cc(-n3ncc(C(=O)/C=C/c4cc(OC)c(OC)c(OC)c4)c3C)c2c1    -15
CCCSc1nnc(-c2sc3nc4ccccc4n3c2C)o1    81.5
Cc1[nH]nc2ccc3nc(-c4cn[nH]c4C(F)(F)F)c4c(c3c12)CCCC4    -21.2
COc1cc(C2CC(c3cc(OC)c(OC)c(OC)c3)=Nc3c(N)nc(N)nc3N2)ccc1Oc1nc(Nc2ccc(F)cc2)nc(N(C)C)n1 (stereo not drawn)    36.6
Cc1cc(C(NC(=O)C2CC3(CC(Nc4cccc5c4C(=O)N(C4CCC(=O)NC4=O)C5=O)C3)C2)c2ccc3c(c2)OC(F)(F)O3)c(O)c2ncccc12 (stereo not drawn)    -12.8
CCOc1ccc2[nH]c(=O)c(C(c3nnnn3CC3CCCO3)N3CCN(Cc4ccccc4)CC3)cc2c1 (stereo not drawn)    41.7
O=C(NC(=S)N1CCN(c2ncnc3c2cnn3-c2ccccc2)CC1)c1ccc(F)cc1    98.6
CCCCCCCCCc1ccc(C(=O)Nc2cc(C)ccc2C(=O)OC)cc1    101

What does the data say about its growth? Entry: O=C(CSc1nc2sc3c(c2c(=O)n1-c1ccc(Cl)cc1)CCCC3)N/N=C/C=C/c1ccccc1
-45.2

Now the same for C/C(=N\Nc1ccc(C(=O)O)cc1)c1cnn(-c2cc(=O)[nH]c3ccc(C)cc23)c1C
93.2

Now the same for Nc1ccc(-c2ccc3ncnc(N4CCc5cc(F)c(Cl)cc54)c3c2)cn1
-69.8

Now the same for COc1ccc2[nH]c(=O)c(CSc3ccccc3Nc3nccc(-c4ccc5c(c4)OCO5)n3)cc2c1
90.1

Now the same for COc1c(F)ccc(C(=O)Nc2ccc3nc(NC(=O)C4CCCN(S(=O)(=O)c5ccc(C(C)(C)C)cc5)C4)sc3c2)c1F (stereo not drawn)
56

Now the same for COc1cc(C2CC(c3ccc(C(F)(F)F)cc3)=Nc3c(N)nc(N)nc3N2)ccc1Oc1nc(Nc2ccc(F)cc2)nc(N(C)C)n1 (stereo not drawn)
39.1

Now the same for O=C1CC(c2ccc(I)cc2)OC2C=Cc3ccccc3C12 (stereo not drawn)
99.2

Now the same for Cn1cc(-c2cc(N)n3nc(-c4c[nH]c5ccc(Cl)cc45)cc3n2)c2cccnc21
-92.5
